# IC50 values compiled below
- tested-system: Human MrgprX2 (Homo sapiens)
- Construct: expressed in transfected cells
- assay-summary: Human MrgprX2 antagonist FLIPR intracellular calcium mobilization assay
- Assay type: cell-based
- experimental-context: antagonist activity, recombinant hMrgpMRGPRX2 expressing cells, read-out: Human MrgprX2 Antagonist pIC50 (converted)
readout-type: IC50 (nM)

>>> reading("C[C@@H](O)CN(C)C(=O)Nc1ncc(Cc2ccccc2F)s1")
1260
>>> reading("NS(=O)(=O)N1CCCC[C@@H]1C(=O)Nc1ncc(Cc2cccc(F)c2)s1")
31.6
>>> reading("CC(C(=O)Nc1ncc(Cc2ccccc2F)s1)N1CCCC1 (stereo not shown)")
1260
>>> reading("CC(C)C(=O)Nc1ncc(Oc2ccc(F)cc2)s1")
10
>>> reading("NS(=O)(=O)N1CCC[C@@H]1C(=O)Nc1ncc(Cc2cccc(F)c2)s1")
31.6
>>> reading("O=C(Nc1ncc(Cc2cccc(F)c2)s1)C1(CO)CC1")
631
>>> reading("CC(C(=O)Nc1ncc(Cc2ccccc2F)s1)N1CCOCC1 (stereo not shown)")
316
>>> reading("CCN(C[C@H](C)O)C(=O)Nc1ncc(Oc2ccc(CC#N)cc2)s1")
1260
>>> reading("O=C(Nc1ncc(Cc2cccc(F)c2)s1)N1CCCC1CO (stereo not shown)")
316
>>> reading("C[C@@H](O)CN(C)C(=O)Nc1ncc(Oc2cccc(F)c2)s1")
1.58
>>> reading("CC(C)(C(=O)Nc1ncc(Cc2ccc(F)cc2)s1)N1CCOCC1")
126
>>> reading("CC(C)(C#N)C(=O)Nc1ncc(Cc2ccccc2F)s1")
631
>>> reading("CCN(C[C@H](C)O)C(=O)Nc1ncc(Oc2cccc(Cl)c2)s1")
0.794
>>> reading("CCN(C[C@H](C)O)C(=O)Nc1ncc(Oc2ccc(C(F)(F)F)cc2)s1")
316
>>> reading("C[C@@H](O)CN(C)C(=O)Nc1ncc(Oc2ccccc2)s1")
15.8
>>> reading("C[C@H](O)CN(C)C(=O)Nc1ncc(Oc2cc(F)ccc2C#N)s1")
2000
>>> reading("COC(C)(C)C(=O)Nc1ncc(Cc2ccccc2F)s1")
251
>>> reading("CCN(C[C@H](C)O)C(=O)Nc1ncc(Cc2cccc(F)c2OC)s1")
501
>>> reading("CCN(C[C@H](C)O)C(=O)Nc1ncc(Oc2cncc(C)c2)s1")
31.6

====

- tested-system: Human MrgprX2 (Homo sapiens, UniProt Q96LB1)
- Construct: expressed in transfected cells
- Sequence (Q96LB1 whole entry): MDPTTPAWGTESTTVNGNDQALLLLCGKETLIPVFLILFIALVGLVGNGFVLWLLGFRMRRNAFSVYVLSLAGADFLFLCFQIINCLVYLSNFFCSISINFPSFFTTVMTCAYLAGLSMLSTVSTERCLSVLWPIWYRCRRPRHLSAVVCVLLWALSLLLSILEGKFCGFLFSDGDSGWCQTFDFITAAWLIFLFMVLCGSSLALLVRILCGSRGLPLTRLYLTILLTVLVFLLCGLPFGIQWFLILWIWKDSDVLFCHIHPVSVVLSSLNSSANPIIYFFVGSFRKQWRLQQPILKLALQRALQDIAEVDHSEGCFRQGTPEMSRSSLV
- assay-summary: Human MrgprX2 antagonist FLIPR intracellular calcium mobilization assay
- Type: cell-based
- experimental-context: antagonist activity, recombinant hMrgpMRGPRX2 expressing cells, read-out: Human MrgprX2 Antagonist pIC50 (converted)
Rule for this label: Condition met means IC50 is less than 300 nM; Condition not met means IC50 is at least 300 nM.

>>> discrete_label("C[C@H](O)CN(C)C(=O)Nc1ncc(Oc2ccccc2C#N)s1")
"Condition not met"
>>> discrete_label("CN(CC(=O)Nc1ncc(Cc2cccc(F)c2)s1)S(N)(=O)=O")
"Condition not met"
>>> discrete_label("CCN(C[C@H](C)O)C(=O)Nc1ncc(Oc2cncc(C(F)(F)F)c2)s1")
"Condition met"
>>> discrete_label("CC1(C(=O)Nc2ncc(CC3CCCC3)s2)CCOCC1")
"Condition not met"
>>> discrete_label("CCN(C[C@H](C)O)C(=O)Nc1ncc(Oc2cc(F)ccc2C#N)s1")
"Condition not met"
>>> discrete_label("O=C(Nc1ncc(Cc2cccc(F)c2)s1)C1(O)CC1")
"Condition not met"
>>> discrete_label("CC(C)(C(=O)Nc1ncc(Cc2ccccc2F)s1)N1CCOCC1")
"Condition met"
>>> discrete_label("CC(C)C(=O)Nc1ncc(Oc2cccc(F)c2)s1")
"Condition met"
